Experiment: Aqueous solubility in solvents with different pH
Type: physicochemical
Details: aqueous buffer, Buffer pH 2 (citric acid/NaOH/HCl) (pH 2.0), 20° C., read-out: Solubility (mg/ml solution)
Description: Aqueous solubilities of Form I were measured in solvents with different pH. An excess of the solute was equilibrated with the solvent at 20° C. for 24 hours. After removing the undissolved compound, the concentration in solution was determined using UV spectrometry.
Structures can show the parent of a compound that is named as a salt.

COMPOUND: Cn1cc(CNCC2CCN(c3ncc(C(=O)NO)cn3)CC2)c2ccccc21 [Form I, hydrochloride]
UNIT_LABEL: mg/mL
solubility thermodynamic at 24 h: 0.95

* * *

Assay: Crystallographic stability after storage in open conditions (TGA, DSC, XRPD, IR)
Assay type: physicochemical
Conditions: six weeks open, 40° C./75% RH
Protocol: The stability of the crystal structure of Form I was studied after storage of the compound in open conditions for a period of six weeks at room temperature (RT) under <5%, 56% and 75% relative humidity (RH), 50° C. and 40° C./75% RH. The samples are analyzed with thermogravimetry (TGA), differential scanning calorimetry (DSC), X-ray powder diffraction (XRPD) and infrared spectroscopy (IR). […]
Counter-ions that a name gives are not always drawn.

MOLECULE: Cn1cc(CNCC2CCN(c3ncc(C(=O)NO)cn3)CC2)c2ccccc21 [Form II, hydrochloride]
TGA <170° C., %: 0.2

* * *

Assay: Chemical stability after storage in open conditions (HPLC, visual inspection)
Format: physicochemical
Settings: RT/<5% RH, 8 weeks; hydrochloride
Protocol: Form I was stored in different open conditions for periods of 1, 4 and 8 weeks. These conditions are 40° C./75% RH, 50° C., RT/<5% RH, RT/56% RH, RT/75% RH and 0.3 da ICH light. The compounds were analyzed after storage by HPLC and by visual inspection. Form II was stored in different open conditions for periods of 1, 4 and 8 weeks. These conditions were 40° C./75% RH, 50° C., RT/<5% RH, RT/56% RH, RT/75% RH and 0.3 da ICH light.
Structures can show the parent of a compound that is named as a salt.
Recorded HPLC Sum of impurities, one value per entry.
VALUE_KIND: HPLC Sum of impurities (%)

MOLECULE: Cn1cc(CNCC2CCN(c3ncc(C(=O)NO)cn3)CC2)c2ccccc21 [Form I, hydrochloride]
VALUE_KIND: HPLC Sum of impurities
OBSERVED_MEASUREMENT: 3.16
--
MOLECULE: Cn1cc(CNCC2CCN(c3ncc(C(=O)NO)cn3)CC2)c2ccccc21 [Form II, hydrochloride]
VALUE_KIND: HPLC Sum of impurities
OBSERVED_MEASUREMENT: 4.98

* * *

experiment: Aqueous solubility in solvents with different pH; assay type: physicochemical; details: aqueous buffer, 0.001N HCl (pH 2.9), 20° C., read-out: Solubility (mg/ml solution)
Counter-ions that a name gives are not always drawn.
VALUE_KIND: solubility thermodynamic at 24 h (mg/mL)

COMPOUND: Cn1cc(CNCC2CCN(c3ncc(C(=O)NO)cn3)CC2)c2ccccc21 [Form I, hydrochloride]
OBSERVED_MEASUREMENT: 1.5

* * *

assay: Crystallographic stability after storage in open conditions (TGA, DSC, XRPD, IR); assay type: physicochemical; details: six weeks open, RT/56% RH
Counter-ions that a name gives are not always drawn.
VALUE_KIND: TGA <200° C. (%)

COMPOUND: Cn1cc(CNCC2CCN(c3ncc(C(=O)NO)cn3)CC2)c2ccccc21 [Form I, hydrochloride]
VALUE_KIND: TGA <200° C.
OBSERVED_MEASUREMENT: 0.4

* * *

assay: Chemical stability after storage in open conditions (HPLC, visual inspection); format: physicochemical; conditions: RT/75% RH, 4 weeks; hydrochloride
Where a name gives a salt, the structure may show the parent alone.
Collected HPLC Sum of impurities values appear next to each entry.
VALUE_KIND: HPLC Sum of impurities (%)

COMPOUND: Cn1cc(CNCC2CCN(c3ncc(C(=O)NO)cn3)CC2)c2ccccc21 [Form II, hydrochloride]
OBSERVED_MEASUREMENT: 5.03
//
COMPOUND: Cn1cc(CNCC2CCN(c3ncc(C(=O)NO)cn3)CC2)c2ccccc21 [Form I, hydrochloride]
OBSERVED_MEASUREMENT: 3.43

* * *

assay: Chemical stability after storage in open conditions (HPLC, visual inspection); assay type: physicochemical; details: 40° C./75% RH, 8 weeks; hydrochloride
Structures can show the parent of a compound that is named as a salt.

COMPOUND: Cn1cc(CNCC2CCN(c3ncc(C(=O)NO)cn3)CC2)c2ccccc21 [Form II, hydrochloride]
HPLC Sum of impurities [%]: 4.9
//
COMPOUND: Cn1cc(CNCC2CCN(c3ncc(C(=O)NO)cn3)CC2)c2ccccc21 [Form I, hydrochloride]
HPLC Sum of impurities [%]: 3.59

* * *

test: Chemical stability after storage in open conditions (HPLC, visual inspection); type: physicochemical; conditions: Reference (1 week); hydrochloride
Counter-ions that a name gives are not always drawn.
VALUE_KIND: HPLC Sum of impurities

COMPOUND: Cn1cc(CNCC2CCN(c3ncc(C(=O)NO)cn3)CC2)c2ccccc21 [Form I, hydrochloride]
VALUE_KIND: HPLC Sum of impurities
OBSERVED_MEASUREMENT: 3.14%
--
COMPOUND: Cn1cc(CNCC2CCN(c3ncc(C(=O)NO)cn3)CC2)c2ccccc21 [Form II, hydrochloride]
VALUE_KIND: HPLC Sum of impurities
OBSERVED_MEASUREMENT: 5.04%

* * *

assay: Crystallographic stability after storage in open conditions (TGA, DSC, XRPD, IR); assay type: physicochemical; conditions: six weeks open, 50° C.; hydrochloride
Where a name gives a salt, the structure may show the parent alone.
VALUE_KIND: TGA <100° C. (%)

MOLECULE: Cn1cc(CNCC2CCN(c3ncc(C(=O)NO)cn3)CC2)c2ccccc21 [Form II, hydrochloride]
OBSERVED_MEASUREMENT: 2.1

MOLECULE: Cn1cc(CNCC2CCN(c3ncc(C(=O)NO)cn3)CC2)c2ccccc21 [Form I, hydrochloride]
OBSERVED_MEASUREMENT: 0.5

* * *

assay: Chemical stability after storage in open conditions (HPLC, visual inspection); assay type: physicochemical; conditions: RT/75% RH, 8 weeks; hydrochloride
Structures can show the parent of a compound that is named as a salt.
Each entry below carries its reported HPLC Sum of impurities.

COMPOUND: Cn1cc(CNCC2CCN(c3ncc(C(=O)NO)cn3)CC2)c2ccccc21 [Form I, hydrochloride]
HPLC Sum of impurities, %: 3.39
//
COMPOUND: Cn1cc(CNCC2CCN(c3ncc(C(=O)NO)cn3)CC2)c2ccccc21 [Form II, hydrochloride]
HPLC Sum of impurities, %: 4.97

* * *

assay: Aqueous solubility in solvents with different pH; assay type: physicochemical; details: aqueous buffer, Buffer pH 4 (citric acid/HCl/NaOH) (pH 3.9), 20° C., read-out: Solubility (mg/ml solution)
Where a name gives a salt, the structure may show the parent alone.
VALUE_KIND: solubility thermodynamic at 24 h

COMPOUND: Cn1cc(CNCC2CCN(c3ncc(C(=O)NO)cn3)CC2)c2ccccc21 [Form I, hydrochloride]
OBSERVED_MEASUREMENT: 1.2 mg/mL

* * *

experiment: Crystallographic stability after storage in open conditions (TGA, DSC, XRPD, IR); type: physicochemical; conditions: six weeks open, RT/<5% RH
Counter-ions that a name gives are not always drawn.

COMPOUND: Cn1cc(CNCC2CCN(c3ncc(C(=O)NO)cn3)CC2)c2ccccc21 [Form II, hydrochloride]
TGA <170° C. / %: 0.4

* * *

assay: Chemical stability after storage in open conditions (HPLC, visual inspection); type: physicochemical; conditions: 50° C., 4 weeks; hydrochloride
Counter-ions that a name gives are not always drawn.
// reported HPLC Sum of impurities for each item listed

COMPOUND: Cn1cc(CNCC2CCN(c3ncc(C(=O)NO)cn3)CC2)c2ccccc21 [Form I, hydrochloride]
HPLC Sum of impurities: 3.2%

COMPOUND: Cn1cc(CNCC2CCN(c3ncc(C(=O)NO)cn3)CC2)c2ccccc21 [Form II, hydrochloride]
HPLC Sum of impurities: 5%

* * *

test: Chemical stability after storage in open conditions (HPLC, visual inspection); assay type: physicochemical; conditions: RT/<5% RH, 4 weeks; hydrochloride
Counter-ions that a name gives are not always drawn.
VALUE_KIND: HPLC Sum of impurities (%)

COMPOUND: Cn1cc(CNCC2CCN(c3ncc(C(=O)NO)cn3)CC2)c2ccccc21 [Form II, hydrochloride]
UNIT_LABEL: %
OBSERVED_MEASUREMENT: 5.1
--
COMPOUND: Cn1cc(CNCC2CCN(c3ncc(C(=O)NO)cn3)CC2)c2ccccc21 [Form I, hydrochloride]
UNIT_LABEL: %
OBSERVED_MEASUREMENT: 3.42
